Molecular target: Histone deacetylase 3 (Homo sapiens)
Sequence (O15379 whole entry): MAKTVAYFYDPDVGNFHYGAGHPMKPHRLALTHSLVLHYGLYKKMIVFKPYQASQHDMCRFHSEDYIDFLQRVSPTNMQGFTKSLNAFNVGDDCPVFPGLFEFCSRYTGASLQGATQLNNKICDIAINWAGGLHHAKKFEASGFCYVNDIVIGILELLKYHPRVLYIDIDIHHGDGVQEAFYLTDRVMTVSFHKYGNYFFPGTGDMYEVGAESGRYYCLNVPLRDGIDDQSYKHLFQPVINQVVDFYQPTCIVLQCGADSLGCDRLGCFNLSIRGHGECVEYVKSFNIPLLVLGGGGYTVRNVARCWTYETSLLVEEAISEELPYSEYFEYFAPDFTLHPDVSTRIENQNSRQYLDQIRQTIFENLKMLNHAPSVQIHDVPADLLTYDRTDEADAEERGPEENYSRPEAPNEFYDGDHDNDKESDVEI
Assay: Inhibition of HDAC3 in human HeLa cells using BOC-K(Ac)-AMC as substrate measured after 30 mins by fluorescence based microtiter plate reader assay
readout.kind: IC50 (nM)

>>> df
                      smiles_representation  number
0  COc1ccc(CNC(=O)c2cc(F)ccc2N2CCOCC2)cc1/C=C/C(=O)NO     242
1  COc1ccc(CNC(=O)c2cc(C(=O)Nc3ccccc3N)ccc2N2CCOCC2)cc1O     530
2  COc1ccc(CNC(=O)c2cc(F)ccc2N2CCOCC2)cc1OCC(=O)NO    3250

----------
Assay: Metabolic stability in mouse plasma assessed as compound remaining at 40 uM measured after 5 hrs by LC-MS/MS analysis (reference value: 100%)
Type: ADME, cell-free
readout.kind: Stability (%)

                      smiles_representation  units_text  number
0  COc1ccc(CNC(=O)c2cc(F)ccc2N2CCOCC2)cc1/C=C/C(=O)NO           %      16

----------
Experiment: Metabolic stability in mouse plasma assessed as compound remaining at 40 uM measured after 0.5 hrs by LC-MS/MS analysis (reference value: 100%)
Assay type: ADME, cell-free
readout.kind: Stability

>>> df
                      smiles_representation  readout_kind  result
0  COc1ccc(CNC(=O)c2cc(F)ccc2N2CCOCC2)cc1/C=C/C(=O)NO     Stability     59%

----------
Experiment: Metabolic stability in mouse plasma assessed as half life at 40 uM measured upto 5 hrs by LC-MS/MS analysis
Assay type: ADME, cell-free
readout.kind: half-life at 40 µM (h)

>>> df
                      smiles_representation        readout_kind  units_text  number
0  COc1ccc(CNC(=O)c2cc(F)ccc2N2CCOCC2)cc1/C=C/C(=O)NO  half-life at 40 µM           h     2.1

----------
Test: Metabolic stability in mouse plasma assessed as compound remaining at 40 uM measured after 1 hrs by LC-MS/MS analysis (reference value: 100%)
Type: ADME, cell-free
readout.kind: Stability

                      smiles_representation  readout_kind  result
0  COc1ccc(CNC(=O)c2cc(F)ccc2N2CCOCC2)cc1/C=C/C(=O)NO     Stability   45.6%

----------
Listed molecules paired with reported pIC50
Target: Histone deacetylase 2 (Homo sapiens)
Sequence (Q92769 whole entry): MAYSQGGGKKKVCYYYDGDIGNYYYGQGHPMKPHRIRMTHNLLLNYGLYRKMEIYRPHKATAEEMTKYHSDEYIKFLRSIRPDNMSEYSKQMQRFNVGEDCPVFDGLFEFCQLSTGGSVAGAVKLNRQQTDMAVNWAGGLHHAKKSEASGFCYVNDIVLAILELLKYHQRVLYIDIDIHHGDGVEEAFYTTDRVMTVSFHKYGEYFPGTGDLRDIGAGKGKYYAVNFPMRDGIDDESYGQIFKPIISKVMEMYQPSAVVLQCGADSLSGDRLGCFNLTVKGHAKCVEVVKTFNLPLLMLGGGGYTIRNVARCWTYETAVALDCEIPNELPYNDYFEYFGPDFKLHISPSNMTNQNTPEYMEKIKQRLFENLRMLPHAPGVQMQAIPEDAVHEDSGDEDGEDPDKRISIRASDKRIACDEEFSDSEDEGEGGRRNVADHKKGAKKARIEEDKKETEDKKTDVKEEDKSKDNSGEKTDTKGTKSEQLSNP
Assay: Inhibition of HDAC2 in human HeLa cells using BOC-K(Ac)-AMC as substrate measured after 30 mins by fluorescence based microtiter plate reader assay
pIC50: −log10 of the molar value.
readout.kind: pIC50

>>> df
                      smiles_representation                                target  number
0  COc1ccc(CNC(=O)c2cc(C(=O)Nc3ccccc3N)ccc2N2CCOCC2)cc1O  Histone deacetylase 2 (Homo sapiens)    4.55
1  COc1ccc(CNC(=O)c2cc(F)ccc2N2CCOCC2)cc1OCC(=O)NO  Histone deacetylase 2 (Homo sapiens)    5.17
2  COc1ccc(CNC(=O)c2cc(F)ccc2N2CCOCC2)cc1/C=C/C(=O)NO  Histone deacetylase 2 (Homo sapiens)    6.87

----------
Biological target: Protein deacetylase HDAC6 (Homo sapiens)
Sequence (Q9UBN7 whole entry): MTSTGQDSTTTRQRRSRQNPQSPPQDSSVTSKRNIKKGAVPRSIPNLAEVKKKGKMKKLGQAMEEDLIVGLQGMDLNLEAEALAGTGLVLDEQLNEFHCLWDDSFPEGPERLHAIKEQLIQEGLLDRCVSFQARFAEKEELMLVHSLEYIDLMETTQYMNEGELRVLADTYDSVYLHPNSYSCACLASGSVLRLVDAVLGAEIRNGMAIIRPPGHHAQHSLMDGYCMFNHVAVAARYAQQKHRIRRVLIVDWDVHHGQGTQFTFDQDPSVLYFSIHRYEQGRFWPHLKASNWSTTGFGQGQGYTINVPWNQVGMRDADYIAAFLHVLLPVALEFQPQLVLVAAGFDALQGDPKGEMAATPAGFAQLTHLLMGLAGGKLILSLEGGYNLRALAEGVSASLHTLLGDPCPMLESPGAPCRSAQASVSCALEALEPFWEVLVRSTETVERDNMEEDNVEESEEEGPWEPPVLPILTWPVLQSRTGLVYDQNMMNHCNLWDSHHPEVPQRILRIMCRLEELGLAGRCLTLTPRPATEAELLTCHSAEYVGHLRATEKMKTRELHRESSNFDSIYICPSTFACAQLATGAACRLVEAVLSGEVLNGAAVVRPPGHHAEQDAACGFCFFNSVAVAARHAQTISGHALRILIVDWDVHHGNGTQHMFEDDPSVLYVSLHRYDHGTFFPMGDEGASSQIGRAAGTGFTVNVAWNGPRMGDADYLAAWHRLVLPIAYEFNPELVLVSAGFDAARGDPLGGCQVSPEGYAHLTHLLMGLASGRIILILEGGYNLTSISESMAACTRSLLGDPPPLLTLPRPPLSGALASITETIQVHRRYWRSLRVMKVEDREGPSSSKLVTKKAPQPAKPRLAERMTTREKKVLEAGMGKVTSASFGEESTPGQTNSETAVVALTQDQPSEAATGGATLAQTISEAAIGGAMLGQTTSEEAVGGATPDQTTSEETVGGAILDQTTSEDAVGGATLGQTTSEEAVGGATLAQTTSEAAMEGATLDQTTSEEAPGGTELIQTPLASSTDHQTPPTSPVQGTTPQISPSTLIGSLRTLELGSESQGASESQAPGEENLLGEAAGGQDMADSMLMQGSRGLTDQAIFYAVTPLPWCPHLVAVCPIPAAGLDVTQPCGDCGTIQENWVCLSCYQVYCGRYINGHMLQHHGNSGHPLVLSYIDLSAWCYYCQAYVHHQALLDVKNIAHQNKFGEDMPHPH
Assay: Inhibition of HDAC6 in human HeLa cells using BOC-K(Ac)-AMC as substrate measured after 30 mins by fluorescence based microtiter plate reader assay
pIC50: −log10 of the molar value.
Listed compounds paired with reported pIC50
readout.kind: pIC50

>>> print(df.to_string())
                      smiles_representation  number
0  COc1ccc(CNC(=O)c2cc(F)ccc2N2CCOCC2)cc1OCC(=O)NO    5.62
1  COc1ccc(CNC(=O)c2cc(F)ccc2N2CCOCC2)cc1/C=C/C(=O)NO    6.86
2  COc1ccc(CNC(=O)c2cc(C(=O)Nc3ccccc3N)ccc2N2CCOCC2)cc1O    6.18

----------
Assay: Metabolic stability in mouse liver microsomes assessed as metabolic bioavailability at 1 uM in presence of NADPH measured up to 60 mins by LC-MS/MS analysis
Assay type: ADME, Microsome
readout.kind: Fh at 1 h, 1 µM

                      smiles_representation  result
0  COc1ccc(CNC(=O)c2cc(F)ccc2N2CCOCC2)cc1/C=C/C(=O)NO   51.6%

----------
Tested on: HepG2
Test: Antiproliferative activity against human HepG2 cells assessed as inhibition of cell growth measured after 72 hrs by MTT assay
Format: functional, cell-based
Conditions: HepG2, 72 h
pIC50: −log10 of the molar value.
readout.kind: pIC50

In [3]: df
Out[3]:
                      smiles_representation  target  number
0   COc1ccc(CNC(=O)c2cc(F)ccc2N2CCOCC2)cc1O   HepG2    7.57
1  O=C(/C=C/c1cc(CNC(=O)c2cc(F)ccc2N2CCOCC2)ccc1O)NO   HepG2    6.15
2  COc1ccc(CNC(=O)c2cc(F)ccc2N2CCOCC2)cc1OCC(=O)NO   HepG2    6.94
3  COc1ccc(CNC(=O)c2cc(C(=O)Nc3ccccc3N)ccc2N2CCOCC2)cc1O   HepG2    7.01
4  COc1ccc(CNC(=O)c2cc(F)ccc2N2CCOCC2)cc1/C=C/C(=O)NO   HepG2    7.54

----------
Assay: Antiproliferative activity against human HFL1 cells assessed as inhibition of cell growth measured after 72 hrs by MTT assay
Type: toxicity, cell-based
IC50 at 72 h less than 100 nM is Criterion met; IC50 at 72 h greater than or equal to 100 nM is Criterion not met.

                      smiles_representation     assigned_label
0  COc1ccc(CNC(=O)c2cc(F)ccc2N2CCOCC2)cc1/C=C/C(=O)NO      Criterion met
1   COc1ccc(CNC(=O)c2cc(F)ccc2N2CCOCC2)cc1O  Criterion not met
2  COc1ccc(CNC(=O)c2cc(C(=O)Nc3ccccc3N)ccc2N2CCOCC2)cc1O  Criterion not met
3  COc1ccc(CNC(=O)c2cc(F)ccc2N2CCOCC2)cc1OCC(=O)NO  Criterion not met
4  O=C(/C=C/c1cc(CNC(=O)c2cc(F)ccc2N2CCOCC2)ccc1O)NO  Criterion not met

----------
System: H22
Experiment: Antiproliferative activity against mouse H22 cells assessed as inhibition of cell growth measured after 72 hrs by MTT assay
Assay type: functional, cell-based
Conditions: H22, 72 h
pIC50: −log10 of the molar value.
readout.kind: pIC50

>>> print(df.to_string())
                      smiles_representation  number
0  O=C(/C=C/c1cc(CNC(=O)c2cc(F)ccc2N2CCOCC2)ccc1O)NO    6.13
1  COc1ccc(CNC(=O)c2cc(F)ccc2N2CCOCC2)cc1OCC(=O)NO    7.02
2  COc1ccc(CNC(=O)c2cc(C(=O)Nc3ccccc3N)ccc2N2CCOCC2)cc1O    7.02
3  COc1ccc(CNC(=O)c2cc(F)ccc2N2CCOCC2)cc1/C=C/C(=O)NO    7.59
4   COc1ccc(CNC(=O)c2cc(F)ccc2N2CCOCC2)cc1O    7.54

meta.source: ChEMBL document CHEMBL5137082
